Biological target: Sodium/iodide cotransporter (Rattus norvegicus, UniProt Q63008)
Sequence (Q63008 whole entry): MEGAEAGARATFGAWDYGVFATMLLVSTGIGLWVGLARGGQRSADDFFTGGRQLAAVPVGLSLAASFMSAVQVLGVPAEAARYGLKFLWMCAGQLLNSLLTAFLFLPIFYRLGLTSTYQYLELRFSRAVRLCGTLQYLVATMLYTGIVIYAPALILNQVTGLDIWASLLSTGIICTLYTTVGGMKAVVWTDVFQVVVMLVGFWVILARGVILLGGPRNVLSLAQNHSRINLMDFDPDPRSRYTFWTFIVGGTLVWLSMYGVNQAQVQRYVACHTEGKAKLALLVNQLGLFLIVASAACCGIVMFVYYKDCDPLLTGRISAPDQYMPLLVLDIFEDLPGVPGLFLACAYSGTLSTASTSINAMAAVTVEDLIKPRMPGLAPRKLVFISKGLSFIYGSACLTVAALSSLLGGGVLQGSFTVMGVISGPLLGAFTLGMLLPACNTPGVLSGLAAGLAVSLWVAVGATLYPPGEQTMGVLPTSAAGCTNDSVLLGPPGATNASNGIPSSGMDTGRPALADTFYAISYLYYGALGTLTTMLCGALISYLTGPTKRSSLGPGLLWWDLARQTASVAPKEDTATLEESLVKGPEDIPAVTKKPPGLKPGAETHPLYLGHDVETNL
Assay: Inhibition of sodium iodide symporter in rat FRTL5 cells assessed as decrease in [125I]-sodium iodide uptake after 60 mins by scintillation counting method
Format: cell-based, FRTL-5
measurement type: IC50 (µM)
# number only, unit µM dropped from output

O=[N+]([O-])c1cccc(C2NCCc3c2[nH]c2ccccc32)c1 (configuration not stated) :: 0.3

Attention now shifts to the item below.
**Query** Query IC50 for Brc1cccc(C2NCCc3c2[nH]c2ccccc32)c1 (configuration not stated)
**Result** 0.4
